Test system: HCT-116
Test: Growth inhibition against human HCT116 cells after 48 hrs by MTT assay
Type: functional, cell-based
Conditions: HCT-116, 48 h
measurementKind: IC50 (µM)
Kindly provide the numeric value in µM only, without the unit symbol.

{"columns": ["smilesData", "measurementKind", "measValue"],
 "data": [
  ["COc1cc([C@H](O)[C@@H](CO)Oc2ccc(/C=C/C=O)cc2OC)ccc1O", "IC50", 32.5],
  ["COc1cc([C@@H](O)[C@@H](CO)Oc2ccc(/C=C/C=O)cc2OC)ccc1O", "IC50", 27.3],
  ["COC/C=C/c1ccc(O[C@H](CO)[C@H](OC)c2ccc(O)c(OC)c2)c(OC)c1", "IC50", 36]
]}

Now examine the next entry.
IN: Quick one: IC50 of COc1cc([C@@H](OC)[C@@H](CO)Oc2ccc(/C=C/C=O)cc2OC)ccc1O ?
OUT: 26.4
